# targetOrSystem: T1, cynomolgus antigen (cynomolgus)
# T1 construct: also called cyno antigen; cynomolgus monkey C5a
# assayRemarks: SPR, scFv captured via anti-c-myc/anti-His, 60 nM cynomolgus antigen as analyte, 1:1 fit
koff reference
Write it as a number; the unit s⁻¹ goes unstated.

16C2 (scFv, V domains shown, Combination mutant scFv) VH: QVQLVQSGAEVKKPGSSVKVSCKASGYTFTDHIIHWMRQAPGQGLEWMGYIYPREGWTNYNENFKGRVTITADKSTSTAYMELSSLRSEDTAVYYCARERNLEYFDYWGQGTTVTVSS VL: DIVLTQSPASLAVSPGQRATITCKASQSVDYEGFNYMNWYQQKPGQPPKLLIYATSNLDSGVPARFSGSGSGTDFTLTINPVEAEDTANYYCQQSVEDPHTFGGGTKVEIK; 0.00176
17D2 (scFv, V domains shown, Combination mutant scFv) VH: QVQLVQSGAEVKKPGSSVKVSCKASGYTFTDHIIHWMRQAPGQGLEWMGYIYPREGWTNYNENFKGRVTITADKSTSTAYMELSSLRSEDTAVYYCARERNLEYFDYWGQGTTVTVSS VL: DIVLTQSPASLAVSPGQRATITCKASQSVDFEGDNYMNWYQQKPGQPPKLLIYATSNLDSGVPARFSGSGSGTDFTLTINPVEAEDTANYYCQQSVEDPHTFGGGTKVEIK; 0.0019
NM2 (scFv, V domains shown, scFv expressed in E. coli BL21 (periplasmic extract)) VH: QVQLVQSGAEVKKPGSSVKVSCKASGYTFTDHIIHWMRQAPGQGLEWMGYIYPREGNTNYNENFKGRVTITADKSTSTAYMELSSLRSEDTAVYYCARERNLEYFDYWGQGTTVTVSS VL: DIVLTQSPASLAVSPGQRATITCKASQSVDYEGDNYMNWYQQKPGQPPKLLIYAASNLDSGVPARFSGSGSGTDFTLTINPVEAEDTANYYCQQSNEDPHTFGGGTKVEIK; 0.0783

Now look at this entry.
Item: 16F10 (scFv, V domains shown, Combination mutant scFv) VH: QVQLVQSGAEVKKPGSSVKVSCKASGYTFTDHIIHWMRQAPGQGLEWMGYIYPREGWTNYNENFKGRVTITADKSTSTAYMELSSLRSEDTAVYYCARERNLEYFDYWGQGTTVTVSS VL: DIVLTQSPASLAVSPGQRATITCKASQSVDFEGFNYMNWYQQKPGQPPKLLIYAASNLDSGVPARFSGSGSGTDFTLTINPVEAEDTANYYCQQSVEDPHTFGGGTKVEIK | koff: 0.000155
